Data provenance: patent US20250277057A1

Target: human activated protein C (human, UniProt P04070 43-197; P04070 212-461)
Test: cell-based or functional assay
assay.endpoint: Mean clotting time (s), FVIII-deficient plasma, APC-antibody concentration 1 ug/ml
Numbers only, in s.

Worked examples, 2 binders total:
binder | endpoint.unit | reading
HAPC-14-2 (antibody, V domains shown, Whole IgG, backbone hIgG1; also called HPAC 14-2) VH: EVQLVESGGGLVQPGGSLRLSCAASGFTFSFYYLNWVRQAPGKGLEWVGDIRLKKNNYEKHYAESVKGRFTISRDDSKSITYLQMNSLRAEDTAVYYCAREGDYFDYWGQGTTVTVSS VL: DIQLTQSPSSLSASVGDRVTITCRASESVDSFGATFMHWYQQKPGKAPKLLIYLASWLESGVPSRFSGSGSGTDFTLTISSLQPEDFATYYCVQNNEDPYTFGQGTKLEIK | s | 196
HAPC-14-5 (antibody, V domains shown, Whole IgG, backbone hIgG1; also called HPAC 14-5) VH: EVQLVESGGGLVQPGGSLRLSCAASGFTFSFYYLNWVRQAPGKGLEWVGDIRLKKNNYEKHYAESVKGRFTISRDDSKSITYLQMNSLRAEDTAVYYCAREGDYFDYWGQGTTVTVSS VL: DIQLTQSPSSLSASVGDRVTITCRASESVDSFGATFMHWYQQKPGKAPKLLIYLASWLGSGVPSRFSGSGSGTDFTLTISSLQPEDFATYYCVQNNEDPYTFGQGTKLEIK | s | 200

// next entry
Ask: Suppose we examine the binder HAPC-14-4 (antibody, V domains shown, Whole IgG, backbone hIgG1; also called HPAC 14-4) VH: EVQLVESGGGLVQPGGSLRLSCAASGFTFSFYYLNWVRQAPGKGLEWVGDIRLKSNNYEKHYAESVKGRFTISRDDSKSITYLQMNSLRAEDTAVYYCAREGDYFDYWGQGTTVTVSS VL: DIQLTQSPSSLSASVGDRVTITCRASESVDSFGATFMHWYQQKPGKAPKLLIYLASRLGSGVPSRFSGSGSGTDFTLTISSLQPEDFATYYCVQNNEDPYTFGQGTKLEIK ; what Mean clotting time (s), FVIII-deficient plasma, APC-antibody concentration 1 ug/ml value has been reported?
Result: 184
